Values compiled from paper PMC4336329.

Overview of recorded hERG current change (%, negative = inhibition) at 10uM for various compounds
- EXPERIMENTAL_TARGET: human ether-à-go-go-related gene (hERG) potassium channel (human);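 note: peak tail current of the secondary pulse compared with the same well before compound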
- Sequence (Q12809 whole entry, looked up): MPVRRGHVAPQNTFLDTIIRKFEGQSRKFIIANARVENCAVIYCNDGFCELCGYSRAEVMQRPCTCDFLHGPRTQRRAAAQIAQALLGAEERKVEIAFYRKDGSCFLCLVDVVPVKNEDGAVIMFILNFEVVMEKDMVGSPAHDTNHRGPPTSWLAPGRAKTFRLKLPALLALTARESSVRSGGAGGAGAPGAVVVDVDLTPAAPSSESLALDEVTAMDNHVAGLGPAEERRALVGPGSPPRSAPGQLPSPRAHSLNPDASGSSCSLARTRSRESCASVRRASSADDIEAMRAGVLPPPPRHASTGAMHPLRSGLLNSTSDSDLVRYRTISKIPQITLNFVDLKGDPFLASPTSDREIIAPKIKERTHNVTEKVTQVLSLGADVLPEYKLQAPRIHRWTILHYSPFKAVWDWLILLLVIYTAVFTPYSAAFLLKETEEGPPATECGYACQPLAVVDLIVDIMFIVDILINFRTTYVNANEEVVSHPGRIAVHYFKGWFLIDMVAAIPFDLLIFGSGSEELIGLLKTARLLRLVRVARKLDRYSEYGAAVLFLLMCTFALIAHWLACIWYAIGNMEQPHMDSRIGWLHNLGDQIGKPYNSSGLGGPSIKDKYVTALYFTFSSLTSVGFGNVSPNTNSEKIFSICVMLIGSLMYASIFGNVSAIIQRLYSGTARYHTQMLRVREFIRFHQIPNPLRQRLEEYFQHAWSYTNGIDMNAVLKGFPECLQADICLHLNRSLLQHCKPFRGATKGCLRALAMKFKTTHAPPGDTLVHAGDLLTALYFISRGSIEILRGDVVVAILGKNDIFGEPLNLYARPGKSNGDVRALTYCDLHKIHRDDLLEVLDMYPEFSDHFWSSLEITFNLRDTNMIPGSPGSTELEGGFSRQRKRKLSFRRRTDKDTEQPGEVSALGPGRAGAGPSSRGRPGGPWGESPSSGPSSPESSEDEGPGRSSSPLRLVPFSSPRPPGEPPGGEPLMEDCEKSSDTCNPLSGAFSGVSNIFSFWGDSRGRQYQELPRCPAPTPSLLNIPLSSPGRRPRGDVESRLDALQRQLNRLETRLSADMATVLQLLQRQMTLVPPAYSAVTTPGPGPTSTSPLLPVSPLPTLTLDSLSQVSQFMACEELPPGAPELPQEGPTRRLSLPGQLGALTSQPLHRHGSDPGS
- TEST_SUMMARY: primary screen, population patch clamp on CHO cells stably expressing hERG; higher = less effect of the substance
The campaign covered roughly 310,000 compounds. About 14,000 (4.5%) showed an effect of 50% or more. The effect is printed as a negative number. The full list was thinned out, with strong results kept by preference.
Give just the number in %; leave the unit off.

> print(dat)
                                   compound  unit.name  numeric.value
1  COc1ccc(/C=N/c2nc3ccccc3n2CCN2CCCCC2)cc1OC          %          -14.3

Supply measured hERG current change (%, negative = inhibition) at 10uM of C=CCn1c(NCc2ccc(OC)cc2O)nc2ccccc21 in your reply.
-23.1

Output measured hERG current change (%, negative = inhibition) at 10uM for this item: Nc1nc(SC2c3cccc4cccc(c34)C2NS(=O)(=O)c2ccccc2)n[nH]1 (centres unmarked)
5.88

Provide hERG current change (%, negative = inhibition) at 10uM value for the following compound: CN1N=C(C(=O)N2CCc3c([nH]c4ccccc34)C2c2c(F)cccc2Cl)CCC1=O (centres unmarked)
-97.3

Look up and report measured hERG current change (%, negative = inhibition) at 10uM for this entry: CC(Oc1ccc(Br)cc1)C(=O)O/N=C(\N)c1ccncc1 (centres unmarked)
5.16
